# Assay overview: NCI Yeast Anticancer Drug Screen. Data for the rad14 strain (AID 159);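 note: 0% = growth of vehicle-treated control cultures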
# Test conditions: S. cerevisiae rad14 strain growth inhibition; at 33.0 µM; hits give high values
The panel holds about 79,000 compounds, 15% with a hit somewhere; the sample as a whole holds those more often. The source made the active and inactive calls. Cut-off read from the data, not from the text of the source: active = growth inhibition above about 70%; inactive = the rest.
Outcome measure: growth inhibition

>>> result("O=C1OC(/C=C/c2ccccc2)Sc2ccccc21 (configuration not stated)")
"12% (inactive)"
>>> result("c1ccc(C2=NNC3c4ccccc4-c4ccccc4N3C2)cc1 (configuration not stated)")
"8% (inactive)"
>>> result("CC[C@]1(O)C[C@H]2CN(CCc3c([nH]c4ccccc34)[C@@](C(=O)OC)(c3cc4c(cc3OC)N(C)[C@H]3[C@@](O)(C(=O)OC)[C@H](OC(C)=O)[C@]5(CC)C=CCN6CC[C@]43[C@@H]65)C2)C1")
"-2% (inactive)"
>>> result("COC(=O)C1(N2CCOCC2)CCC([C@@H](c2ccccc2)C(C)[N+](=O)[O-])C1 (some centres not stated)")
"9% (inactive)"
>>> result("CCCCCC/C(C)=N/Nc1ccc([N+](=O)[O-])cc1[N+](=O)[O-]")
"23% (inactive)"
>>> result("[O-]c1c2cc(-[n+]3c(-c4ccccc4)cc(-c4ccccc4)cc3-c3ccccc3)cc1COCCOCCOCCOCCOC2")
"9% (inactive)"
>>> result("O=S(=O)(Oc1c(Cl)cc(Cl)cc1Cl)c1ccccc1")
"11% (inactive)"

---

# Assay overview: NCI Yeast Anticancer Drug Screen. Data for the mec2-1 strain (AID 157)
# Test conditions: S. cerevisiae mec2-1 strain, at 1.2 µM, hits give high values
Compounds without any hit were thinned out: in the full panel of roughly 79,000, 15% have a hit. Active and inactive are the calls of the source. No stated cut-off is given here; in the data, active means growth inhibition above about 70%; inactive means the rest.
Outcome measure: growth inhibition

>>> result("COc1ccc2c(C)cc(N/N=C/c3sccc3C)nc2c1")
"-22% (inactive)"
>>> result("COc1ccc2nc3cccc([N+](=O)[O-])c3c(NCCCO)c2c1")
"93% (active)"
>>> result("CCOc1nc(OCC)nc(-c2cccn2-c2ccccc2)n1")
"-4% (inactive)"
>>> result("CN(C)CCNC(=O)c1cccc2nc3c(ccc4ccccc43)nc12")
"-1% (inactive)"
>>> result("CC(O)CN1C(=O)c2cccc3cc([N+](=O)[O-])cc(c23)C1=O (stereo not given)")
"-17% (inactive)"
>>> result("O=C1c2ccccc2C2CCC1c1ccccc12 (stereo not given)")
"-24% (inactive)"
>>> result("O=C1C=CC(=Nc2ccc3c(c2)Cc2cc(Cl)ccc2-3)O1")
"6% (inactive)"
>>> result("Cc1ccc(C(C)C)c(C(=C2C=CC(=[N+](C)C)C=C2)c2c(C(C)C)ccc(C)c2O)c1O")
"-1% (inactive)"
>>> result("COc1ccc2c(Cc3c4ccccc4cc4ccccc34)cncc2c1O")
"4% (inactive)"
>>> result("CCC1SC(=S)N(c2ccc(Cl)cc2)C1=O (stereo not given)")
"-3% (inactive)"

---

# Assay overview: NCI Yeast Anticancer Drug Screen. Data for the wt2 strain (AID 169);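 note: 0% = growth of vehicle-treated yeast cultures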
# Test conditions: S. cerevisiae wt2 strain growth inhibition; at 100.0 µM
The panel holds about 79,000 compounds, 15% with a hit somewhere; the sample as a whole holds those more often. Calls of active or inactive are those of the source. Rule as the data show it: active = growth inhibition above about 70%; inactive = the rest.
Outcomes: active, inactive

>>> cat("S=c1[nH]nc(Cc2ccccc2)c(=S)[nH]1")
"active"
>>> cat("CC1(C)CC(=O)C(C(CC(c2ccccc2)c2cc3c(cc2O)OCO3)C2=C(O)CC(C)(C)CC2=O)=C(O)C1 (stereo unspecified)")
"active"
>>> cat("CCC(C)C(=O)OCC(=O)c1ccc(-c2ccccc2)cc1 (stereo unspecified)")
"inactive"
>>> cat("NNc1nnc(-c2ccccc2)nc1Cc1ccccc1")
"active"
>>> cat("COc1cc(C(C)(C)C)cc(OC)c1C(O)(c1c(OC)cc(C(C)(C)C)cc1OC)c1c(OC)cc(C(C)(C)C)cc1OC")
"active"
>>> cat("Nc1ccc2cc(Br)c3ccccc3c2c1")
"active"

Taken from PubChem BioAssay (NCI).
